Target: DPP IV enzyme (Homo sapiens, UniProt P27487)
Sequence (P27487 whole entry, species assumed): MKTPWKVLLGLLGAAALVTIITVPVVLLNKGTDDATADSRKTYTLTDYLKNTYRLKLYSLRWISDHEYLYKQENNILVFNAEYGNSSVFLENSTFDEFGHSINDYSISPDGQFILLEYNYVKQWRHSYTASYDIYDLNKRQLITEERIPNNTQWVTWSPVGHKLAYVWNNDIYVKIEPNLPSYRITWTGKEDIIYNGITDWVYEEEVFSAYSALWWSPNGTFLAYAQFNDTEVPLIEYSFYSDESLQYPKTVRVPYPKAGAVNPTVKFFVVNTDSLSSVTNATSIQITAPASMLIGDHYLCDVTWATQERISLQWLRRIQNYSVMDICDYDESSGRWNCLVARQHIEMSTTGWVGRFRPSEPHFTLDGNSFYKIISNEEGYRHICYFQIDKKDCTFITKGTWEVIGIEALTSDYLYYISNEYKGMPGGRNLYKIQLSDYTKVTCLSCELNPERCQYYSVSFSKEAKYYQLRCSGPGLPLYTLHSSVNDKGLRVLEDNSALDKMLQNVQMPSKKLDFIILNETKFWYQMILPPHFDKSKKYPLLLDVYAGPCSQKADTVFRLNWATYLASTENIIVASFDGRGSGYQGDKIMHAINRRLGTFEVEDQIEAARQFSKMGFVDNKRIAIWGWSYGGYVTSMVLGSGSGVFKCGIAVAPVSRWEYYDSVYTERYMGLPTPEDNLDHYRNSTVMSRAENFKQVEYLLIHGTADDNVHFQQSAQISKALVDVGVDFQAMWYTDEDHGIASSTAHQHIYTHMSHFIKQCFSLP
Experiment: Stability against DPP IV enzyme
Assay type: in vitro ADME
Conditions: 2 μM, 37° C.; read-out: half-life (t1/2) with DPP-IV enzyme
Where a SMILES comes first, the peptide text is derived from it. [ ]: non-standard residue; d: D form. ξ: configuration not given here. ξαMeBip(2'-Et,4'-OMe) = CCc1cc(OC)ccc1-c1ccc(CC(C)(N)C(=O)O)cc1; ξαMePhe(2,6-F2) = CC(N)(Cc1c(F)cccc1F)C(=O)O; ξαMe(hhPhe) = CC(N)(CCCc1ccccc1)C(=O)O; ξαMeS = CC(N)(CO)C(=O)O
measurement.kind: half-life

Give the value of half-life reported for the following: CCc1cc(OC)ccc1-c1ccc(CC(C)(NC(=O)[C@H](CC(=O)O)NC(=O)C(C)(CO)NC(=O)[C@@H](NC(=O)C(C)(Cc2c(F)cccc2F)NC(=O)[C@@H](NC(=O)CNC(=O)[C@H](CCC(=O)O)NC(=O)[C@H](C)NC(=O)[C@H](Cc2c[nH]cn2)NC(=O)[C@@H](N)C(C)C)[C@@H](C)O)[C@@H](C)O)C(=O)NC(C)(CCCc2ccccc2)C(N)=O)cc1 (stereo partly shown) [compound 178] (H-VHAEGT[ξαMePhe(2,6-F2)]T[ξαMeS]D[ξαMeBip(2'-Et,4'-OMe)][ξαMe(hhPhe)]-NH2) > 24 h

The measurements presented in this section are drawn from patent US20120264685A1.
